Source listed as paper PMC10878854.

Consider the following substances; for each one, report its β-turn content.
Give the number; % is assumed, so skip it.

IN: Given the substance "H-KWEKPF-OH" , write its reported β-turn content.
OUT: 41.7

IN: Respond only with β-turn content recorded for "H-FDRPFL-OH"
OUT: 39.3

====

Task for the reader: assign each of the following substances its reported IC50.
- testedTarget: ACE (Oryctolagus cuniculus, UniProt P12822)
- Sequence (P12822 34-1310): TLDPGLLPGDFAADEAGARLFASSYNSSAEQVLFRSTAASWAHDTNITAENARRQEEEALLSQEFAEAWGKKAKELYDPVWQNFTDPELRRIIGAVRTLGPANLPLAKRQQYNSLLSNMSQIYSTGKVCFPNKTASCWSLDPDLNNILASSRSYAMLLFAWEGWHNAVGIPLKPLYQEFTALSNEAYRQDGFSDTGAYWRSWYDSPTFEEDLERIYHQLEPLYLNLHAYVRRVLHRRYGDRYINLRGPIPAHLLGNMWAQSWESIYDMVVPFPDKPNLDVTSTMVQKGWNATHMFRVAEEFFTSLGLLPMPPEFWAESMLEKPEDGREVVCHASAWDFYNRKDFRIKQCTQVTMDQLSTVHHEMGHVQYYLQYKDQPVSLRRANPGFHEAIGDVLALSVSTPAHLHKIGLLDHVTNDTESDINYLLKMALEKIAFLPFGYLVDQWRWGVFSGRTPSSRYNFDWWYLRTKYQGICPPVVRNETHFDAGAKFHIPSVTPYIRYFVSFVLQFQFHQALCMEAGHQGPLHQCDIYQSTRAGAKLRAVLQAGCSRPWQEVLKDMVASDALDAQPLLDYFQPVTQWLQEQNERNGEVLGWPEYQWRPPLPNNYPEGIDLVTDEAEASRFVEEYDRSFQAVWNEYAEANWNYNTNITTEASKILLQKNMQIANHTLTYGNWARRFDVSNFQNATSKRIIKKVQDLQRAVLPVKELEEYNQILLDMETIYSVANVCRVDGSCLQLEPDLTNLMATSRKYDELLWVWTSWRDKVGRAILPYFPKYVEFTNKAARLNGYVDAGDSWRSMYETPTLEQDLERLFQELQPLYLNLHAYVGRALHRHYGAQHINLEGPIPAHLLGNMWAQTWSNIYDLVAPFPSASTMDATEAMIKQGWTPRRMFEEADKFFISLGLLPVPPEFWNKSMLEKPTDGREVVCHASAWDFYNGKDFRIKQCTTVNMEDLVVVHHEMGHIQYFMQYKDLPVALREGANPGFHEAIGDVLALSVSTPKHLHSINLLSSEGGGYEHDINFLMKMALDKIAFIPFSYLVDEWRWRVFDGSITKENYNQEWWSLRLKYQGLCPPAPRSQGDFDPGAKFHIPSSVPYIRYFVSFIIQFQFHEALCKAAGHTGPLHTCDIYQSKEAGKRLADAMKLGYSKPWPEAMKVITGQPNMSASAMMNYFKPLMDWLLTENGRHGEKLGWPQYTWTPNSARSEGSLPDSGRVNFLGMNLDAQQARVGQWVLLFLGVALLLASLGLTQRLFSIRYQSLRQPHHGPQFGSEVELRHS
- assayOverview: In-vitro ACE inhibitory activity (HHL substrate, hippuric acid absorbance at 228 nm)
- Type: biochemical
- studyConditions: synthetic peptides; 5 mM HHL, 25 mU/mL ACE, 37 °C 30 min, absorbance 228 nm; calculated from regression equations; mean ± SD, n = 3
No end group written: not given here.

IN: Return value of IC50 for input GKWEKPF [GKWEKPF] , no commentary.
OUT: > 1.12 mM

IN: Write down IC50 measured for item DDFFHR [DDFFHR]
OUT: > 1.2 mM

IN: Return the recorded IC50 value; entry: YDFYPR [YDFYPR]
OUT: > 1.16 mM

====

measuredProperty: α-helix content (%)
Give just the numeric value; % need not be written.

IN: Output measured α-helix content for this item: "H-FDRPFL-OH"
OUT: 22.4

IN: Could you please provide reported α-helix content for "H-KWEKPF-OH" ? Thanks!
OUT: 20.2

====

Can you tell me β-sheet content for the items I'm about to list?
Report only the number, with the unit % understood.

IN: Answer with the recorded β-sheet content for the substance listed here: "H-FDRPFL-OH"
OUT: 38.3

IN: For the substance "H-KWEKPF-OH" , report β-sheet content.
OUT: 38
